In this section we review reported %Inh values for a set of compounds.
# Test system: DDR1
# STATED_CONDITIONS: concentration: 1 μM, replicates: in singlicate; n = 1;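 further: KINOMEscan kinase panel screen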
Quick note: give the figure in %, leave out the unit.

# COMPOUND, TARGET_UNDER_TEST, %Inh (%)
rows = [
    ("Cl.c1ccc(-c2ccc3c(Nc4ccc5[nH]ccc5c4)ccnc3c2)nc1", "DDR1", 99.4),
]

Task: Name the recorded %Inh of the item `O=C(Nc1cccc(-c2nn3ncccc3c2-c2ccnc(Nc3ccccc3)n2)c1)c1c(F)cccc1F` in your answer.
Output: 100

Task: Name the recorded %Inh of the item `Cc1cccc(Nc2nc(N[C@H]3CCNC3)ncc2C(N)=O)c1.Cl` in your answer.
Output: 0

Task: Name the recorded %Inh of the item `Cn1cc(-c2[nH]c3cc(NC(=O)[C@H](N)C4CCCCC4)cc4c3c2C=NNC4=O)cn1` in your answer.
Output: 0

Task: Name the recorded %Inh of the item COc1ccc(Nc2nccc(N3CCC(NC(=O)Nc4cccc(OC)c4)C3)n2)cc1 (centres unmarked) in your answer.
Output: 8

Task: Name the recorded %Inh of the item `CN(C)S(=O)(=O)c1cc(-c2ccc3nccc(-c4cccc(S(N)(=O)=O)c4)c3c2)cnc1N` in your answer.
Output: 100

Task: Name the recorded %Inh of the item `CCc1ccc(-c2ccc3c(c2)-c2c(cnn2C)S(=O)(=O)N3C)cc1` in your answer.
Output: 0

Task: Name the recorded %Inh of the item `COC(=O)Nc1nc2cc(Oc3ccc(NC(=O)Nc4cc(C(F)(F)F)ccc4F)cn3)ccc2[nH]1.Cl.Cl` in your answer.
Output: 100

* * *

In this section we review reported %Inh values for a set of compounds.
# System: LZK
# Construct: gene MAP3K13
# STATED_CONDITIONS: concentration: 1 μM, replicates: in singlicate; n = 1
Quick note: give the figure in %, leave out the unit.

Illustrative cases are given below, each with its answer.
# COMPOUND, %Inh / %
data = [
    ("COc1cccc(NC(=O)NC2CCN(c3ccnc(Nc4cc(OC)c(OC)c(OC)c4)n3)C2)c1 (stereo not drawn) [GSK1379763]", 25),
    ("CN(C)S(=O)(=O)c1cc(-c2ccc3nccc(-c4cccc(S(N)(=O)=O)c4)c3c2)cnc1N [GSK1669921]", 0),
]

Task: Jot down %Inh (LZK) of Nc1ncc(-c2ccc3nccc(-c4ccncc4)c3c2)cc1S(=O)(=O)N1CCOCC1 [GSK1627798] .
Output: 0

Task: Jot down %Inh (LZK) of O=c1[nH]cc(-c2ccc(N3CCOCC3)cc2)c2sc(-c3cn[nH]c3)cc12 [GSK2276055] .
Output: 0

Task: Jot down %Inh (LZK) of `COCCOCCOc1cc2ncc3c4ccc(C#N)cc4[nH]c3c2cc1OC` .
Output: 1

Task: Jot down %Inh (LZK) of Cc1ccc(C(=O)Nc2ccc(Nc3ccnc4cc(-c5nccs5)ccc34)cc2O)cc1.Cl [GW494702] .
Output: 21

Task: Jot down %Inh (LZK) of `Cn1cc(-c2[nH]c3cc(NC(=O)[C@H](N)C4CCCCC4)cc4c3c2C=NNC4=O)cn1` .
Output: 0

Task: Jot down %Inh (LZK) of c1ccc(-c2n[nH]cc2Nc2ccnc3ccccc23)nc1 [GW694077] .
Output: 0

Task: Jot down %Inh (LZK) of COc1cccc(C2=C(Nc3ccc(Cl)c(C(=O)O)c3)C(=O)NC2=O)c1 [SB-390769] .
Output: 30

Task: Jot down %Inh (LZK) of `COc1cccc(C(=O)Nc2cccc(Oc3ccc4nc(NC(=O)C5CC5)cn4n3)c2)c1` .
Output: 0

Task: Jot down %Inh (LZK) of COc1cc(Nc2ncc3c(C)nc(-c4cc5ccccc5[nH]4)n3n2)cc(OC)c1OC [GW869516] .
Output: 0

Task: Jot down %Inh (LZK) of `COc1cc2c(cc1OCCN1CCNCC1)ncc1c3ccc(C#N)cc3[nH]c21` .
Output: 100
